# assay.overview: Excitation and fluorescence emission wavelength measurement
# Assay type: physicochemical
# test.settings: aqueous solution: 10 mg/mL solution in DMSO diluted 500-fold with purified water
property.measured: Excitation wavelength λex (nm)

CCN1c2ccc(/C=C3/SC(=S)N(CC(=O)O)C3=O)cc2C2CCCC21 (stereo not drawn) | 440
O=C(O)CCN1C(=O)/C(=C\c2ccc3c(c2)C2CCCC2N3c2ccccc2)SC1=S (stereo not drawn) [Dye 130] | 541
O=C(O)CC[n+]1c(/C=C/c2ccc3c(c2)C2CCCC2N3c2ccc(C=C(c3ccccc3)c3ccccc3)cc2)sc2ccccc21 (stereo not drawn) | 598
CC[N+]1=C(C=c2s/c(=C/c3ccc4c(c3)C3CCCC3N4c3ccccc3)c(=O)n2CC(=O)O)C(C)(C)c2ccccc21 (stereo not drawn) | 570
COc1ccc(N2c3ccc(/C=C4\C(=O)N(c5ccccc5)N=C4C(=O)O)cc3C3CCCC32)cc1 (stereo not drawn) | 530
COc1ccc2cc(N3c4ccc(/C=C5\C(=O)N(c6ccccc6)N=C5C(=O)O)cc4C4CCCC43)ccc2c1 (stereo not drawn) | 610

---

# assay.overview: Excitation and fluorescence emission wavelength measurement
# Format: physicochemical
# test.settings: aqueous solution: 10 mg/mL solution in DMSO diluted 500-fold with purified water
property.measured: Excitation wavelength λex (nm)

As a guide, the following entries are already answered.
COc1ccc(N2c3ccc(/C=C/c4sc5ccccc5[n+]4CC(=O)O)cc3C3CCCC32)cc1 (centres unmarked) | 560
CC1(C)C(/C=C/C=C/C=C/C=C2\N(CCCCS(=O)(=O)O)c3ccc4ccccc4c3C2(C)C)=[N+](CCCCS(=O)(=O)[O-])c2ccc3ccccc3c21 [ICG, indocyanine green, reference compound] | 784
N#C/C(=C\c1ccc2c(c1)C1CCCC1N2Cc1ccccc1)C(=O)O (centres unmarked) | 482
C[n+]1c(/C=c2\s/c(=C/c3ccc4c(c3)C3CCCC3N4c3ccc(C=C(c4ccccc4)c4ccccc4)cc3)c(=O)n2CC(=O)O)sc2ccccc21 (centres unmarked) | 560
O=C(O)CN1C(=O)/C(=C\c2cc(Br)c3c(c2)C2CCCC2N3Cc2ccccc2)SC1=S (centres unmarked) | 486
CCN1C(=O)/C(=c2/s/c(=C/c3ccc4c(c3)C3CCCC3N4CC)c(=O)n2CC(=O)O)SC1=S (centres unmarked) | 623

I = C=CCN1C(=O)/C(=c2\s/c(=C/c3ccc4c(c3)C3CCCC3N4c3ccc(C=C(c4ccccc4)c4ccccc4)cc3)c(=O)n2CC(=O)OCC)SC1=S (centres unmarked)
II = O=C1/C(=C/c2ccc3c(c2)C2CCCC2N3c2ccccc2)Oc2ccc(I)cc21 (centres unmarked)
Which record would sort first by descending Excitation wavelength λex, I or II ? Your answer should be the label of the entry you select.
I
(I: 600 nm, II: 380 nm)

---

# assay.overview: Excitation and fluorescence emission wavelength measurement
# Format: physicochemical
# test.settings: aqueous solution: 10 mg/mL solution in DMSO diluted 500-fold with purified water
property.measured: Fluorescence emission wavelength λem (nm)

N#C/C(=C\c1ccc2c(c1)C1CCCC1N2c1ccc(C=C(c2ccccc2)c2ccccc2)cc1)C(=O)O (stereo not drawn) [Dye 7] | 601
CSc1cccc(N2c3ccc(/C=C4/SC(=S)N(CC(=O)O)C4=O)cc3C3CCCC32)c1 (stereo not drawn) [Dye 115] | 640
CCN1C(=O)/C(=c2/s/c(=C/c3ccc4c(c3)C3CCCC3N4CC)c(=O)n2CC(=O)O)SC1=S (stereo not drawn) [Dye 110] | 671
